Values were extracted from patent US20130245006A1.

Readings of melting point for the listed compounds
Where a name gives a salt, the structure may show the parent alone.
Record the value in °C, omitting the unit from your answer.

Reference set, count: 5
Query :: # lookup: melting point of CCc1cc2cc(C(=O)N(CC)Cc3cc(C)on3)ccn2c1C(=O)c1ccc(CCCNC(C)(C)C)cc1 [compound 46]
Result :: 175

Query :: # lookup: melting point of CCOCCN(CC)C(=O)c1ccn2c(C(=O)c3ccc(CCCNC4CCCC4)cc3)c(CC)cc2c1 [compound 37]
Result :: 146.4

Query :: # lookup: melting point of CCc1cc2cc(C(=O)N3CCNC(=O)C3)ccn2c1C(=O)c1ccc(CCCNC(C)(C)C)cc1 [compound 38]
Result :: 122

Query :: # lookup: melting point of CCc1cc2cc(C(=O)OCc3nnn(C)n3)ccn2c1C(=O)c1ccc(CCCNC(C)(C)C)cc1 [compound 49]
Result :: 203

Query :: # lookup: melting point of CCc1cc2cc(C(=O)N(CC)Cc3cnn(C)c3)ccn2c1C(=O)c1ccc(CCCNC(C)(C)C)cc1 [compound 45]
Result :: 173

More entries:
Query :: # lookup: melting point of CCc1cc2cc(C(=O)N(CC)Cc3nnn(C)n3)ccn2c1C(=O)c1ccc(CCCNC(C)(C)C)cc1 (as salt: hydrochloride) [Compound No. 17]
Result :: 172

Query :: # lookup: melting point of CCN(Cc1nnn(C)n1)C(=O)c1ccn2c(C(=O)c3ccc(CCCNC(C)(C)C)cc3)c(C3CCC3)cc2c1 [compound 42]
Result :: 195

Query :: # lookup: melting point of CCc1cc2cc(C(=O)N(CC(=O)OC)C(C)C)ccn2c1C(=O)c1ccc(CCC(C)(C)NC2CCCC2)cc1 (as salt: hydrochloride) [Compound No. 19]
Result :: 245

---

Readings of melting point for the listed compounds
Structures can show the parent of a compound that is named as a salt.
Param answer (str): number followed by unit.

Query :: # lookup: melting point of `CCc1cc2cc(C(=O)N3CCNC(=O)CC3)ccn2c1C(=O)c1ccc(CCCNC2CCCC2)cc1`
Result :: 176 °C

Query :: # lookup: melting point of CCc1cc2cc(C(=O)N(CC)Cc3nnn(C)n3)ccn2c1C(=O)c1ccc(CCC(C)(C)NC(C)(C)C)cc1 (as salt: hydrochloride)
Result :: 122 °C

Query :: # lookup: melting point of `CCCCc1cc2cc(C(=O)N(CC)CC)ccn2c1C(=O)c1ccc(C2CCNCC2)cc1`
Result :: 149.6 °C

Query :: # lookup: melting point of `CCc1cc2cc(C(=O)N(CC)Cc3ccn(C)n3)ccn2c1C(=O)c1ccc(CCCNC(C)(C)C)cc1`
Result :: 149 °C

Query :: # lookup: melting point of `CCc1cc2cc(C(=O)O[C@H]3CNC(=O)C3)ccn2c1C(=O)c1ccc(CCCNC(C)(C)C)cc1`
Result :: 162 °C

Query :: # lookup: melting point of `CCN(Cc1nnn(C)n1)C(=O)c1ccn2c(C(=O)c3ccc(CCCNC(C)(C)C)cc3)c(C)cc2c1`
Result :: 153 °C

Query :: # lookup: melting point of CCN[C@@H](CCc1ccc(C(=O)c2c(CC)cc3cc(C(=O)N(CC)Cc4nnn(C)n4)ccn23)cc1)C(C)C (as salt: hydrochloride)
Result :: 100 °C

---

Readings of log10(solubility) for the listed compounds
PROCEDURE_TEXT: Solubility by HPLC relative to a reference sample
Format: physicochemical
RUN_PARAMETERS: aqueous buffer, phosphate buffer, at the pH given
Form field - Quantity: solubility; Unit: µg/mL; Scale: log10

Reference set, count: 3
Query :: # lookup: log10(solubility) of `CCCCc1cc2cc(C(=O)N(CC)Cc3nc(C)no3)ccn2c1C(=O)c1ccc(CCCN(CCCC)CCCC)cc1`
Result :: 3.70

Query :: # lookup: log10(solubility) of `CCCCN(CCCC)CCCc1ccc(C(=O)c2c(CC)cc3cc(C(=O)N(CC)CC(=O)OC(C)C)ccn23)cc1`
Result :: 3.80

Query :: # lookup: log10(solubility) of `CCCCc1cc2cc(C(=O)N(CC)Cc3nnn(C)n3)ccn2c1C(=O)c1ccc(CCCN(CCCC)CCCC)cc1`
Result :: 3.86

More entries:
Query :: # lookup: log10(solubility) of `CCCCc1cc2cc(C(=O)N(CC)CC(=O)OC)ccn2c1C(=O)c1ccc(CCCN(CCCC)CCCC)cc1`
Result :: 3.77

Query :: # lookup: log10(solubility) of CCCCc1cc2cc(C(=O)N(CC)[C@@H](C)C(=O)OC)ccn2c1C(=O)c1ccc(CCCN(CCCC)CCCC)cc1 (stereo in doubt)
Result :: 3.76

Query :: # lookup: log10(solubility) of `CCc1cc2cc(C(=O)N(CC(=O)OC)C(C)C)ccn2c1C(=O)c1ccc(CCCC2(NC)CCCC2)cc1`
Result :: 2.80

Query :: # lookup: log10(solubility) of `CCc1cc2cc(C(=O)N(CC(=O)OC)C(C)C)ccn2c1C(=O)c1ccc(CCCNC2CCCC2)cc1`
Result :: 3.69

---

PROCEDURE_TEXT: Solubility by HPLC relative to a reference sample
Type: physicochemical
RUN_PARAMETERS: aqueous buffer, phosphate buffer, at the pH given
Experimental: The evaluation of the solubility of the compounds of the invention is carried out at pH 4 (using a phosphate buffer, […]) by HPLC using an H2O/CH3CN/CH3SO3H gradient, relative to a reference sample (a dilute solution of the product to be evaluated which serves as an internal control). The solubility S results are expressed in mg/ml. Generally, the compounds of the present invention have a solubility S≧4 mg/ml at pH≧4. […]
Kind request: treat 6000 µg/mL as inclusive, so solubility at 6000 µg/mL or higher is true (1), anything lower is false (0).

Solved cases (3 shown):
Query :: Check this compound for solubility at or above 6000 µg/mL: `CCc1cc2cc(C(=O)N(CC(=O)OC)C(C)C)ccn2c1C(=O)c1ccc(CCCNC2CCCCC2)cc1`
Result :: false (0)

Query :: Check this compound for solubility at or above 6000 µg/mL: `CCCCN(CCCC)CCCc1ccc(C(=O)c2ccc3cc(C(=O)N(CC(=O)OC)C(C)C)ccn23)cc1`
Result :: true (1)

Query :: Check this compound for solubility at or above 6000 µg/mL: `CCc1cc2cc(C(=O)N(CC(=O)OC)C(C)C)ccn2c1C(=O)c1ccc(CCCN(CC)C(C)C)cc1`
Result :: true (1)

More entries:
Query :: Check this compound for solubility at or above 6000 µg/mL: `CCc1cc2cc(C(=O)N3CCNC(=O)CC3)ccn2c1C(=O)c1ccc(CCCNC2CCCC2)cc1`
Result :: true (1)

Query :: Check this compound for solubility at or above 6000 µg/mL: `CCCCc1cc2cc(C(=O)N3CCC[C@H]3C(=O)OC)ccn2c1C(=O)c1ccc(CCCN(CCCC)CCCC)cc1`
Result :: true (1)

Query :: Check this compound for solubility at or above 6000 µg/mL: `CCc1cc2cc(C(=O)N(CC(=O)OC)C(C)C)ccn2c1C(=O)c1ccc(CCCC2(NC(C)C)CCCC2)cc1`
Result :: true (1)

Query :: Check this compound for solubility at or above 6000 µg/mL: `CCCCc1cc2cc(C(=O)N(CC(=O)OC)C(C)C)ccn2c1C(=O)c1ccc(CCCN(CCCC)CCCC)cc1`
Result :: false (0)

Query :: Check this compound for solubility at or above 6000 µg/mL: `CCCCc1cc2cc(C(=O)N(CC)Cc3nc(C)no3)ccn2c1C(=O)c1ccc(C2CCNCC2)cc1`
Result :: false (0)

Query :: Check this compound for solubility at or above 6000 µg/mL: `CCCCc1cc2cc(C(=O)N(CC(=O)OC(C)C)C(C)C)ccn2c1C(=O)c1ccc(CCCN(CCCC)CCCC)cc1`
Result :: false (0)

Query :: Check this compound for solubility at or above 6000 µg/mL: `CCCCc1cc2cc(C(=O)N(CC(=O)O)C(C)C)ccn2c1C(=O)c1ccc(CCCN(CC)CC)cc1`
Result :: true (1)

Query :: Check this compound for solubility at or above 6000 µg/mL: `CCCCc1cc2cc(C(=O)N(CC)CC(=O)O)ccn2c1C(=O)c1ccc(CCCN(CCCC)CCCC)cc1`
Result :: false (0)

Query :: Check this compound for solubility at or above 6000 µg/mL: `CCCCc1cc2cc(C(=O)N(CC)CC(=O)OCC)ccn2c1C(=O)c1ccc(CCCN(CCCC)CCCC)cc1`
Result :: false (0)

Query :: Check this compound for solubility at or above 6000 µg/mL: `CCc1cc2cc(C(=O)N3CCC[C@@]3(C)C(=O)OC)ccn2c1C(=O)c1ccc(CCCNC(C)(C)C)cc1`
Result :: true (1)

Query :: Check this compound for solubility at or above 6000 µg/mL: `CCCCc1cc2cc(C(=O)N(CC)Cc3nnn[nH]3)ccn2c1C(=O)c1ccc(CCCN(CCCC)CCCC)cc1`
Result :: false (0)
